- System: KMS-12-PE cells
- METHOD: Apoptosis measurement (AnnexinV/PI staining) on myeloma cells
- Format: cell-based
- TEST PARAMETERS: Homo sapiens, 12.5 µM, 48 h, read-out: % Alive (cells alive of control)
Flag rule - viability at 12.5 µM less than 90% flags TRUE; the remaining entries get FALSE.

COMPOUND	CAT
O=C(/C=C/c1ccc(O)c(O)c1)O[C@H](Cc1ccc(O)c(O)c1)C(=O)O [Compound 12, (R)-(+)-rosmarinic acid]	FALSE
COc1ccc(-c2cc(=O)c3c(O)c(OC)c(OC)cc3o2)cc1OC	FALSE
COc1cc2oc(-c3ccc(O)cc3)cc(=O)c2c(O)c1OC	TRUE
COc1cc([C@H]2OC[C@H]3[C@@H]2CO[C@@H]3c2ccc3c(c2)OCO3)ccc1O [Compound 9, (+)-piperitol]	FALSE

In: Find out if reported viability at 12.5 µM for COc1ccc(-c2cc(=O)c3c(O)cc(O)cc3o2)cc1O is less than 90%
Out: TRUE
